Where these numbers come from: patent US20240352105A1

measurement_target: T1, recombinant His-tagged Der p1 (dust mite, UniProt P08176 99-320, limits assumed)
T1 construct: Recombinant His-tagged protein made by the applicant; also called Der p1-His; Der pl; not shown: His tag
T1 sequence (looked up): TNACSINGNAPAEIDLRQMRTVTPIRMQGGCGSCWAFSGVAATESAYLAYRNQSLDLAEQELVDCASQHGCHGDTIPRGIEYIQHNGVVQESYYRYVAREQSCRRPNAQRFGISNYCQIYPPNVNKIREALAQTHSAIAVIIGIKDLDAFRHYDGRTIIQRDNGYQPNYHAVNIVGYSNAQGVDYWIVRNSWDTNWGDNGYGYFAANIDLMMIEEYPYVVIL
experimental_protocol: ELISA, Der p1 on plate, biotinylated peptide at 30, duplicate 1
No end group written: not given here.

binder	OD450
LTGYGMS (also: biotinylated, site not given here, 7-amino acid peptide from a phage display library) [SDAB22110-2-D9]	0.751 OD450
YPTWAYR (also: biotinylated, site not given here, 7-amino acid peptide from a phage display library) [SDAB22110-2-C3]	0.684 OD450
AVVSFYP (also: biotinylated, site not given here, 7-amino acid peptide from a phage display library) [SDAB22110-2-F1]	0.938 OD450
